target: truncated human PTH-1 receptor hDelNt (human), Q03431
Sequence (Q03431 other isoform, or with tags, fused parts or gaps, form in doubt): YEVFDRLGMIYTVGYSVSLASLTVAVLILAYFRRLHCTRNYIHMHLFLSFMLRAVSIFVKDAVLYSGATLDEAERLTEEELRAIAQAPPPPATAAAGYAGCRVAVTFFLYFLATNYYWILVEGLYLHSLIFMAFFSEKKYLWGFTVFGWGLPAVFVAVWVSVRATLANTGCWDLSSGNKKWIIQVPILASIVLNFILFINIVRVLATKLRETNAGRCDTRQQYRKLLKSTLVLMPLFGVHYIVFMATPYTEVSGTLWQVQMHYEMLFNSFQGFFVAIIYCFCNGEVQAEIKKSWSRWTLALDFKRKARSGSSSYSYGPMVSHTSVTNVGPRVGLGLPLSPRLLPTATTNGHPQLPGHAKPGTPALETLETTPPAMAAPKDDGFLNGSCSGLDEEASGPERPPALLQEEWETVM
experimental-protocol: cell-based or functional assay
Non-standard residues stand in square brackets, D forms with d. No end group written: not given here. Nle = CCCC[C@H](N)C(=O)O
measurement-type: cAMP Emax, COS-7 cells with hDeINt (picomole/well)
Numbers only.

Here is how some binders turned out for cAMP Emax, COS-7 cells with hDeINt (picomole/well).
[
  {
    "binder": "AVAEIQLMHARAKHLNSMERVEWLRKKLQDVHNY-NH2 (also called peptide #7; #7) [[A1, A3, A10, R11, A12, Y34]hPTH(1-34)]",
    "numeric-result": 251
  },
  {
    "binder": "AVAEIQLMHAR-NH2 [[A3, A10, R11]rPTH(1-11)]",
    "numeric-result": 243
  }
]

State the recorded cAMP Emax, COS-7 cells with hDeINt (picomole/well) for every item in the following list.
1. SVSEIQLMHNLGKHLNSMERVEWLRKKLQDVHNY-NH2 [[Tyr^34]human (h)PTH(1-34)NH2]
2. AVSEIQLMHNLGKH-NH2 [native rPTH(1-14)]
3. AVAEIQLMHARAKH-NH2 [[A3, A10, R11, A12]rPTH(1-14)]
4. AVSEIQL[Nle]HNLGKHLASVER[Nle]QWLRKKLQDVHNY-NH2 [[Nle^8,21,Tyr^34]-rPTH(1-34)NH2]

Reply text:
[238, 222, 250, 243]
